Hello, the source for this data is a melting point compilation (Tetko et al.; mined from patent text by program, amines drawn as free bases though some values may be those of a salt), in case you need it.

What melting point was measured for each of the following?

Study these solved cases before continuing.
c1ccc(-c2cc(OCCN3CCOCC3)[nH]n2)cc1	100 °C
CSc1ccc(-c2nn(Cc3ccc(F)cc3F)c(=S)cc2-c2ccc(Cl)cc2)cc1	176 to 177 °C
O=C1CCc2ccc(OCCCCN3CCCN(c4cccc(Cl)c4Cl)CC3)cc2N1	88 to 89 °C

Hello, I would appreciate it if you could give melting point for each entry below.
1. C=C(c1ccccc1)c1cc2cc(OC)ccc2[nH]1
2. CCNC(=O)n1nc(Oc2ccc([N+](=O)[O-])c(OCC)c2)cc1C
3. CCCc1c(OCCCCCCC(=O)NCCCCc2cccnc2)ccc(C(C)=O)c1O

Result:
119 to 121 °C
110 to 112 °C
57 to 59 °C

Hello, I would appreciate it if you could give melting point for each entry below.
1. CN(C)c1nc(N2CCOCC2)nc(-n2ccnc2)n1
2. CC(C)(C)c1ccc(S(=O)(=O)N2c3ccccc3C[C@H]2C(=O)NCc2ccc(N)cc2)cc1
3. COc1cc(COc2cccc(CC(=O)O)c2-c2cccc(C(=O)O)c2)ccc1C12CC3CC(CC(C3)C1)C2

Result:
["156 to 158 °C", "83 to 87 °C", "240 to 242 °C"]

Hello, I would appreciate it if you could give melting point for each entry below.
1. COc1cc(C)c(/C=C/c2nc3c([nH]2)c(=O)n(C)c(=O)n3C)cc1C
2. COc1cccc(N2CCN(CCC(O)COc3ccccc3)CC2)c1 (stereo unspecified)
3. Cc1ccccc1-n1c(C=Cc2ccccn2)nc2ccsc2c1=O
4. COc1cc2ccc(-c3cc(OCc4ccccc4)c(OC)cc3[N+](=O)[O-])cc2cc1OC
5. COC(=O)C1Cc2c([nH]c3ccccc23)C(c2c(Cl)cccc2Cl)N1 (stereo unspecified)
6. CN(C)CCc1ccc(O)c2nc[nH]c12
7. CC(C)c1cccc(C(C)C)c1NC(=O)CN1CCCN(CCCSc2nc3ncccc3o2)CC1
8. COCC(=O)OC[C@@H]1CC(c2ccc(-c3ccc(N4C[C@H](Cn5ccnn5)OC4=O)cc3F)cn2)=NO1

Result:
> 280 °C
58 to 60 °C
203 °C
151 to 153 °C
102 to 105 °C
245 to 252 °C
73 to 75 °C
170 °C

Hello, I would appreciate it if you could give melting point for each entry below.
1. O=C(c1ccccc1)c1c(O)c2c(C(=O)O)cccc2[nH]c1=O
2. FC(F)(F)Oc1ccc(C2NCCc3ccccc32)cc1 (stereo unspecified)
3. NCC(=O)Nc1ccc(Br)cc1C(=NCCO)c1ccccc1F
4. O=C(OCc1ccccc1)c1ccc(CCCOCCCCCCNCC(O)c2ccc(O)c(CO)c2)cc1 (stereo unspecified)
5. COC(=O)c1ccc(C(O)c2ccc(C(=O)OC)cc2)cc1
6. Cc1cc(=O)oc2nn(Cc3ccncc3)c(C)c12
7. O=c1ccc(C(F)(F)F)cn1-c1ccc(NCCO)cc1Cl

Result:
1: > 300 °C; 2: 56.6 to 57.1 °C; 3: 167 to 168 °C; 4: 51 to 52 °C; 5: 116 °C; 6: 177 to 180 °C; 7: 161 to 164 °C

Hello, I would appreciate it if you could give melting point for each entry below.
1. Cc1cccc(N2C(=O)CC(Cl)C2=O)c1 (stereo unspecified)
2. Nc1c(C(=O)Nc2nnn[nH]2)oc2ccccc12
3. CCOP(=O)(OCC)c1ccc(/C=C/c2ccc3c(c2)C(C)(C)CCC3(C)C)cc1
4. Cc1cc(-c2ccc(OC(C)C(O)CCc3cccnc3)cc2)ccc1C#N (stereo unspecified)

Result:
1: 137 to 138 °C; 2: 185 °C; 3: 83 to 84 °C; 4: 93.5 to 94.5 °C

Hello, I would appreciate it if you could give melting point for each entry below.
1. COc1cc(OCCCCl)ccc1C(C)=O
2. O=C(O)CC(Sc1ccccc1)c1ccccc1 (stereo unspecified)
3. COc1ccc(CC(C)(N)C(=O)O)cc1 (stereo unspecified)

Result:
["47 to 49 °C", "85 to 90 °C", "243 to 244 °C"]

Hello, I would appreciate it if you could give melting point for each entry below.
1. Cn1c(C(F)(F)F)nc(-c2ccc(F)cc2)c1-c1ccc(S(C)(=O)=O)cc1
2. O=C(O)c1ccc(NCCOc2cccc3ccccc23)cc1
3. CCOC(=Nc1cccc(C(F)(F)F)c1)C(C)C
4. CN(C)Cc1cc(C(C)(C)C)cc(C(C)(C)C)c1O
5. Cc1cc(-c2cc3ncccc3c(=O)[nH]2)cc(C)c1O
6. CCOC(=O)[C@H](Cc1ccc(-c2c(C)n(C)c(=O)n(C)c2=O)cc1)NC(=O)c1c(Cl)cccc1Cl
7. O=C(Nc1cccc(-c2ccnc3c(C(=O)c4cccs4)cnn23)c1)c1ccccc1F

Result:
1: 187 to 189 °C; 2: 193 to 194 °C; 3: 95 to 100 °C; 4: 54 to 56 °C; 5: > 350 °C; 6: 262 to 265 °C; 7: 190 to 191 °C

Hello, I would appreciate it if you could give melting point for each entry below.
1. CC(C)Sc1cc2c(cc1Cl)N=C(C(Cl)Cl)NS2(=O)=O
2. CC#COc1ccc2c(=O)c3ccccc3oc2c1
3. Cn1nc2cccc(O)c2c1S(N)(=O)=O

Result:
1. 287 to 289 °C
2. 142 to 144 °C
3. 180 to 181 °C
